B1: EMD (parent)
chain: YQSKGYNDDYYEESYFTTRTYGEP

- Variants of: B1
- assay: protein stability index of a GFP-peptide fusion (GPS, HEK-293T) (PSI 1-6); higher = more stable;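 note: lentivirally expressed fusions sorted by FACS into six bins by GFP to DsRed ratio, PSI derived from sequencing read proportions per bin multiplied by bin number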
- condition-summary: c terminus: a fixed tail appended

variant-code	protein stability index
Y21A	2.76
T20F	2.23
R19V	2.26
P24I	1.86
T17H	2.07
Y11G	2.84
E13N	1.64
T20Y	1.44
T17D	3.19
T17W	2.15
R19L	2.21
